Run Description: Solubility experiment
Type: physicochemical
Experimental Setup: pH 4.5 medium, pH 4.5, aqueous buffer, thermodynamic from solid, pH 4.5 medium; read-out: Solubility
Value Kind: Solubility (µg/mL)
Dear colleague, please return just the value in µg/mL, with no unit written.

# input Give the measured Solubility of C=CC(=O)N1CCC[C@@H](Nc2nc(Nc3ccc(N4CCOCC4)cc3F)c3c(c2F)CNC3=O)C1 [crystal form I] .
# output 8

====

This section presents compounds with their documented IC50 values.
Target System: BTK WT (Homo sapiens, UniProt Q06187)
Sequence (Q06187 whole entry): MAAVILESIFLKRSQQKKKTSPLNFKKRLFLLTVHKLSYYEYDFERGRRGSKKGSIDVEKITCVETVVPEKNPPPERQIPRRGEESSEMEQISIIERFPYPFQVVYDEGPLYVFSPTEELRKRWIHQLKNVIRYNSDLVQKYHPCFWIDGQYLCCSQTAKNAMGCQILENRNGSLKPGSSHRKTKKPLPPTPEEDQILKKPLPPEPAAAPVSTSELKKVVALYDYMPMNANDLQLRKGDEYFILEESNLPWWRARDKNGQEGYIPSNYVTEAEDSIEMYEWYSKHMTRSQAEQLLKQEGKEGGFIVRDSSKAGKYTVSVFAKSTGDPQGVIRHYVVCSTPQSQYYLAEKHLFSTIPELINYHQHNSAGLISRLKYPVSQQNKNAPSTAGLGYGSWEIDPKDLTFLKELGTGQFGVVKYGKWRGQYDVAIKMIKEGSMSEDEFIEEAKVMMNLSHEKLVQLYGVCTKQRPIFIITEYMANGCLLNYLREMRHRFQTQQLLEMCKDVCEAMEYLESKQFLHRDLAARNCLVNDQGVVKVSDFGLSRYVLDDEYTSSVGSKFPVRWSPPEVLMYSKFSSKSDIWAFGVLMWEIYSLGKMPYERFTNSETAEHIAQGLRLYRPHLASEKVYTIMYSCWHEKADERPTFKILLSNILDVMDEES
Dear colleague, please return just the value in nM, with no unit written.

Compound: C=CC(=O)N1CCC[C@@H](Nc2nc(Nc3ccc(N4CCOCC4)cc3F)c3c(c2F)CNC3=O)C1
IC50, nM: 2.4

Here is the next item to consider.
# input Identify the measured IC50 of C=CC(=O)N1CCC[C@H](Nc2nc(Nc3ccc(N4CCOCC4)cc3F)c3c(c2F)CNC3=O)C1 [reference compound] for BTK WT (Homo sapiens, UniProt Q06187).
# output 48
